Collected fold induction at 1.25 µM values appear next to each entry.
Tested on: eIF2α phosphorylation (ATF-4 5′UTR luciferase reporter)
EXPERIMENT DESCRIPTION: surrogate eIF2α phosphorylation dual-luciferase reporter (DLR) assay
Type: cell-based
EXPERIMENTAL SETUP: 1.25 μM; F/R luciferase ratio normalized to DMSO wells (F/R=1); read-out: Fold stimulation of ATF-4 Surrogate eIF2α @ 1.25 μM

Answered cases to consult:
N#Cc1ccc(NC(=O)N[C@H]2CC[C@H](Oc3ccc(C(F)(F)F)cc3)CC2)cc1F ... 5.5
N#Cc1cc(F)cc(NC(=O)N[C@H]2C[C@H](Oc3ccc(C(F)(F)F)cc3)C2)c1 ... 2
O=C(Nc1cccc(C(F)(F)F)c1)N[C@H]1C[C@@H](Oc2ccc(C(F)(F)F)cc2)C1 ... 1.2
N#Cc1cc(NC(=O)N[C@H]2C[C@H](Oc3ccc(C(F)(F)F)cc3)C2)cc(C(F)(F)F)c1 ... 4.4
N#Cc1ccc(NC(=O)N[C@H]2CC[C@H](Oc3ccc(C(F)(F)F)cc3)CC2)c(F)c1 ... 2.4
Cc1ccc(F)cc1NC(=O)N[C@H]1CC[C@H](Oc2ccc(C(F)(F)F)cc2)CC1 ... 1.8
Cc1ccc(F)cc1NC(=O)N[C@H]1CC[C@H](Oc2ccc(C(F)(F)F)cc2)C1 ... 1.4
Cc1ccc(F)cc1NC(=O)N[C@H]1C[C@H](Oc2ccc(C(F)(F)F)cc2)C1 ... 0.7
N#Cc1cccc(NC(=O)N[C@H]2C[C@H](Oc3ccc(C(F)(F)F)cc3)C2)c1 ... 1.6
O=C(Nc1cccc(F)c1F)N[C@H]1CC[C@H](Oc2ccc(C(F)(F)F)cc2)CC1 ... 4.7

With those in mind, consider the next compound.
Report fold induction at 1.25 µM for N#Cc1cccc(NC(=O)N[C@H]2C[C@@H](Oc3ccc(C(F)(F)F)cc3)C2)c1 please. 1.1

###

Tested on: human melanoma CRL-2813 cells
EXPERIMENT DESCRIPTION: sulforhodamine B (SRB) cell proliferation assay
Type: cell-based
EXPERIMENTAL SETUP: Homo sapiens, CRL2813, 120 h, 5 days, read-out: IC50 (concentration that inhibits growth of human melanoma CRL-2813 cells by 50%)
Reported pIC50 values are given for each entry in this list.
Reminder that pIC50 is minus the log10 of a molar concentration.

These recorded examples may help you get a feel for the data.
N#Cc1cc(F)cc(NC(=O)N[C@H]2CC[C@H](Oc3ccc(C(F)(F)F)cc3)C2)c1 ... 5.72
O=C(Nc1cccc(F)c1F)N[C@H]1CC[C@H](Oc2ccc(C(F)(F)F)cc2)CC1 ... 5.80
Cc1ccc(F)cc1NC(=O)N[C@H]1CC[C@H](Oc2ccc(C(F)(F)F)cc2)CC1 ... 5.28

Please look up its pIC50: N#Cc1cccc(NC(=O)N[C@H]2CC[C@H](Oc3ccc(C(F)(F)F)cc3)C2)c1 5.19

###

REPORTED PROPERTY: melting point

Would you please look over these solved cases?
O=C(Nc1ccc(F)c(F)c1)Nc1ncc(Oc2ccc(C(F)(F)F)cc2)cn1 [Compound 10-py] ... 224.8 to 226.2 °C
O=C(Nc1cccc(F)c1F)N[C@H]1C[C@H](Oc2ccc(C(F)(F)F)cc2)C1 [Compound 11-IV] ... 205.9 to 208 °C
Cc1ccc(F)cc1NC(=O)N[C@H]1CC[C@H](Oc2ccc(C(F)(F)F)cc2)C1 [Compound 7-V] ... 209.8 to 211.4 °C
O=C(Nc1ccc(F)c(F)c1)N[C@H]1C[C@H](Oc2ccc(C(F)(F)F)cc2)C1 [Compound 10-IV] ... 179.9 to 182 °C
N#Cc1cccc(NC(=O)N[C@H]2C[C@@H](Oc3ccc(C(F)(F)F)cc3)C2)c1 [Compound 3-IVc] ... 203.7 to 206.8 °C
O=C(Nc1cccc(C(F)(F)F)c1)N[C@H]1C[C@H](Oc2ccc(C(F)(F)F)cc2)C1 [Compound 2-IV] ... 171.8 to 174.6 °C

So what's the measured melting point for this one? N#Cc1cc(F)cc(NC(=O)N[C@H]2CC[C@H](Oc3ccc(C(F)(F)F)cc3)C2)c1 [Compound 4-V] 176.2 to 177.8 °C

Repeat with Cc1ccc(F)cc1NC(=O)N[C@H]1C[C@H](Oc2ccc(C(F)(F)F)cc2)C1 [Compound 7-IV] 204.2 to 206 °C

Likewise for Cc1ccc(F)cc1NC(=O)N[C@H]1CC[C@H](Oc2ccc(C(F)(F)F)cc2)CC1 [Compound 7-VI] ? 238.2 to 239.8 °C

###

REPORTED PROPERTY: melting point

N#Cc1cc(F)cc(NC(=O)N[C@H]2CC[C@H](Oc3ccc(C(F)(F)F)cc3)CC2)c1 [Compound 4-VI] ... 237.8 to 240.8 °C

Suppose we examine the compound N#Cc1cc(NC(=O)N[C@H]2C[C@H](Oc3ccc(C(F)(F)F)cc3)C2)cc(C(F)(F)F)c1 ; what melting point value has been reported? 191.6 to 193 °C

Also, N#Cc1ccc(F)c(NC(=O)N[C@H]2CC[C@H](Oc3ccc(C(F)(F)F)cc3)CC2)c1 please. 234.6 to 237 °C

Follow-up item: N#Cc1cccc(NC(=O)Nc2ncc(Oc3ccc(C(F)(F)F)cc3)cn2)c1 260.2 to 261.5 °C
